Values compiled from patent US20260184768A1.

- System: T1, PcrV (aa136-257).6xhis (Pseudomonas aeruginosa)
- T1 chain: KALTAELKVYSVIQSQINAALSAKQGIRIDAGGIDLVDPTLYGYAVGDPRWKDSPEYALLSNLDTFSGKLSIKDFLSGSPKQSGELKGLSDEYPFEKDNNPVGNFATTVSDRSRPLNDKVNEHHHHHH
- Run Description: SPR (Biacore T200), mAb captured via anti-human Fc, PcrV injected, 25 C
Reported Endpoint: kon (M⁻¹ s⁻¹)
One number for each entry, in M⁻¹ s⁻¹.

Illustrative cases are given below, each with its answer.
Binder	kon / M⁻¹ s⁻¹
REGN3514 (antibody, V domains shown, also called Control I; Control I-REGN3514) VH: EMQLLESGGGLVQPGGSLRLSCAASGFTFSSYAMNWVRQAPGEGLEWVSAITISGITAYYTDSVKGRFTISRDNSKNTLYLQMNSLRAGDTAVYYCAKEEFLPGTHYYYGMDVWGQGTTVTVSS VL: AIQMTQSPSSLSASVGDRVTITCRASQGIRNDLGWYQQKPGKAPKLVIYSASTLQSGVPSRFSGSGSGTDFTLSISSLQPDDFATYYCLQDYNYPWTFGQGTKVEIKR	147000
REGN3977 (antibody, V domains shown, also called Control III; REGN3977-Control III) VH: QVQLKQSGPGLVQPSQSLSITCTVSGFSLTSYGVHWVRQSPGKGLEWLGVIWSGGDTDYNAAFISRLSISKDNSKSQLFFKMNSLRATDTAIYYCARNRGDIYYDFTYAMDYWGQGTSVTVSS VL: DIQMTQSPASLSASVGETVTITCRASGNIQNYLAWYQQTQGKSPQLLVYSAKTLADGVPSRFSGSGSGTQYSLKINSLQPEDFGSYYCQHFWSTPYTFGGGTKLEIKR	223000
H1H29339P (antibody, V domains shown) VH: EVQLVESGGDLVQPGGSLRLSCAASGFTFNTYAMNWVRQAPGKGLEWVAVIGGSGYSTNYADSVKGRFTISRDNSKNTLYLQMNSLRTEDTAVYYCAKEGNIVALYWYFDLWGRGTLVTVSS VL: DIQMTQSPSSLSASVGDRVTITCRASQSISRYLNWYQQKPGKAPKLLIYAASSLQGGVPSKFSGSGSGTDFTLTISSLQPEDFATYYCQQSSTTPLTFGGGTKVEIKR	293000

Asked: Give the measured kon of H1H29329P (antibody, V domains shown) VH: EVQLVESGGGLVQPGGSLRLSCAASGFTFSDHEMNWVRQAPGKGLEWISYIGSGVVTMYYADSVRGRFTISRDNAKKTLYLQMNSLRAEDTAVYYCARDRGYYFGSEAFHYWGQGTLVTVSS VL: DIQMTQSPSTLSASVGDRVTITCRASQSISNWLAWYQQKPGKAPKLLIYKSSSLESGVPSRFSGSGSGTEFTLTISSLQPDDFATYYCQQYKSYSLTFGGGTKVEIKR .
Given back: 153000
